Target: BRAFV600E full-length (amino acids 2-766) (Homo sapiens, UniProt P15056, V600E)
Construct: His6-tagged BRAFV600E full-length (amino acids 2-766); His6; made in house; host or cells: baculovirus expression system (insect cells)
Sequence (P15056 2-766 V600E): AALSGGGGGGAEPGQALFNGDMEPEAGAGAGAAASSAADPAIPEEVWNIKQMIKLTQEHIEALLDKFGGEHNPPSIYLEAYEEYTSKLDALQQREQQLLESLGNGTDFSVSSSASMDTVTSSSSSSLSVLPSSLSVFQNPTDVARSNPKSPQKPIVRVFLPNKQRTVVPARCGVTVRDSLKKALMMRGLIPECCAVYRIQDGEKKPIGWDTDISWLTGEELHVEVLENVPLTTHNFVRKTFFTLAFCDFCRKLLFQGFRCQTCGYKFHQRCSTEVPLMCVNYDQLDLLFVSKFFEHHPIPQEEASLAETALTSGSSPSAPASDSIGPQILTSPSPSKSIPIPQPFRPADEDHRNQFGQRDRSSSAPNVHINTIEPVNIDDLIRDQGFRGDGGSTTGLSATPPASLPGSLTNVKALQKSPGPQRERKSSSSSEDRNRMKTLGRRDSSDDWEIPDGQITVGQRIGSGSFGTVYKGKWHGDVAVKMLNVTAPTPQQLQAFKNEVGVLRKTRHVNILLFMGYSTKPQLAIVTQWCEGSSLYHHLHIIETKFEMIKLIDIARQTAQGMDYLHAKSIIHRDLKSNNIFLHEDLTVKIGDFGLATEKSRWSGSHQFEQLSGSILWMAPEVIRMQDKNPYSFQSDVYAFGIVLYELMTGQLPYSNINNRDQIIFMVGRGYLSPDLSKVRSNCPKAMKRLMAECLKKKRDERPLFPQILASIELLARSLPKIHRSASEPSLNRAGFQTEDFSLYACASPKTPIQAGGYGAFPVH
Assay: B-Raf Accelerated MEK ATPase assay (BRAMA)
Assay type: biochemical
Conditions: B-Raf pIC50, Table 1b; later runs, average pIC50 for the one or more runs, categorized
Where a name gives a salt, the structure may show the parent alone.
In this section we review reported IC50 values for a set of compounds.

[
  {
    "compound": "CC(C)c1nc(-c2cccc(NS(=O)(=O)c3c(F)cccc3F)c2F)c(-c2ccnc(N)n2)s1 [Example 60]",
    "IC50": "≤ 3.16 nM"
  },
  {
    "compound": "CC(C)c1nc(-c2ccc(F)c(NS(=O)(=O)c3cc(F)ccc3F)c2)c(-c2ccnc(NC3CC3)n2)s1 [Example 122]",
    "IC50": "31.6 to 1000 nM"
  },
  {
    "compound": "Nc1nccc(-c2sc(N3CCOCC3)nc2-c2cccc(NS(=O)(=O)c3cccnc3)c2F)n1 [Example 61]",
    "IC50": "≤ 3.16 nM"
  },
  {
    "compound": "CC(C)CNc1nccc(-c2sc(N3CCOCC3)nc2-c2cccc(NS(=O)(=O)c3c(F)cccc3F)c2F)n1 [Example 91]",
    "IC50": "≤ 3.16 nM"
  },
  {
    "compound": "CS(=O)(=O)CCNc1nccc(-c2sc(N3CCCC3)nc2-c2cccc(NS(=O)(=O)c3c(F)cccc3F)c2)n1 [Example 32]",
    "IC50": "≤ 3.16 nM"
  },
  {
    "compound": "CC(C)(C)c1nc(-c2cccc(NS(=O)(=O)c3cc(F)ccc3F)c2F)c(-c2ccnc(NCC3CCCO3)n2)s1 (centres unmarked) [Example 213]",
    "IC50": "≤ 3.16 nM"
  },
  {
    "compound": "CC(C)c1nc(-c2ccc(F)c(NS(=O)(=O)c3c(F)cccc3F)c2)c(-c2ccnc(NCCCCN(C)C)n2)s1 [Example 167]",
    "IC50": "31.6 to 1000 nM"
  },
  {
    "compound": "Cn1ccc(S(=O)(=O)Nc2cccc(-c3nc(C4CCOCC4)sc3-c3ccnc(N)n3)c2F)c1 [Example 285, hydrochloride]",
    "IC50": "31.6 to 1000 nM"
  },
  {
    "compound": "CS(=O)(=O)N1CCN(c2nc(-c3cccc(NS(=O)(=O)c4cc(F)ccc4F)c3F)c(-c3ccnc(N)n3)s2)CC1 [Example 99]",
    "IC50": "≤ 3.16 nM"
  },
  {
    "compound": "Nc1nccc(-c2sc(C3CCOCC3)nc2-c2cccc(NS(=O)(=O)c3ccoc3)c2F)n1 [Example 281]",
    "IC50": "≤ 3.16 nM"
  },
  {
    "compound": "Cn1ccc(S(=O)(=O)Nc2cccc(-c3nc(C(C)(C)C)sc3-c3ccnc(N)n3)c2F)n1 [Example 288, hydrochloride]",
    "IC50": "31.6 to 1000 nM"
  },
  {
    "compound": "O=S(=O)(Nc1cccc(-c2nc(N3CCOCC3)sc2-c2ccnc(NCC3CCCO3)n2)c1F)c1cc(F)ccc1F (centres unmarked) [Example 209]",
    "IC50": "≤ 3.16 nM"
  },
  {
    "compound": "CC(C)(C)OC(=O)NCCNc1nccc(-c2sc(C(C)(C)C)nc2-c2cccc(NS(=O)(=O)c3cc(F)ccc3F)c2F)n1 [Example 198]",
    "IC50": "≤ 3.16 nM"
  },
  {
    "compound": "Cc1nccc(-c2sc(C3(C)CCNCC3)nc2-c2cccc(NS(=O)(=O)c3ccoc3)c2F)n1 [Example 320]",
    "IC50": "≤ 3.16 nM"
  }
]
